TARGET_SYSTEM: human MrgX1 (Homo sapiens)
Sequence (Q96LB2 whole entry): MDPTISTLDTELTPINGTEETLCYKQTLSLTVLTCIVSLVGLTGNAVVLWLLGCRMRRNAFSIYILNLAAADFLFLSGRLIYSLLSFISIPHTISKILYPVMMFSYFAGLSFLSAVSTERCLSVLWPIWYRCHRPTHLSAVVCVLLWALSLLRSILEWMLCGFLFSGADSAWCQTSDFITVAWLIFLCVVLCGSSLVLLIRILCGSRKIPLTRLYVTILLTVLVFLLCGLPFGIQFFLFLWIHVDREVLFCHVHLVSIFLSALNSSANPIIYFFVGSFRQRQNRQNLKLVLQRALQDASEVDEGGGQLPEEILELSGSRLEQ
PROCEDURE_DETAILS: FLIPR agonist assay, HEK293 cells stably transfected with human MrgX1
PROPERTY_NAME: EC50

>>> df
                                   compound               target_system  property_name   reading
0  N=C(N)Nc1cccc(C(N)C(=O)N[C@@H](Cc2ccccc2)C(N)=O)c1 (stereo partly shown) [20a]  human MrgX1 (Homo sapiens)           EC50  > 100 µM

* * *

TARGET_SYSTEM: rat MrgC (Rattus norvegicus)
Sequence (Q8R4G1 whole entry): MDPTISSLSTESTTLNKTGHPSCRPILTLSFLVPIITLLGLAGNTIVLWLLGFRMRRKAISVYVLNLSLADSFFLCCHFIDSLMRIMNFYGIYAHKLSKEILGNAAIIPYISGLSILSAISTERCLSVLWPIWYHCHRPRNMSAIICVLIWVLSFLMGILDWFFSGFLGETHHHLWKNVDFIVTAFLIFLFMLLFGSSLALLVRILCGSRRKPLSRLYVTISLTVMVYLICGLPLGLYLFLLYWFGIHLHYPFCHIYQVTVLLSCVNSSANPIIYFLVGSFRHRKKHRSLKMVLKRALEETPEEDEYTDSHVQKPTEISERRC
PROCEDURE_DETAILS: FLIPR agonist assay, transiently transfected HEK293 or KNRK cells, rat MrgC
pEC50: −log10 of the molar value.
PROPERTY_NAME: pEC50

                                   molecule  property_name  reading
0  N=C(N)Nc1cccc(C(N)C(=O)N[C@@H](Cc2ccccc2)C(N)=O)c1 (stereo partly shown) [20a]          pEC50   < 4.00
